Conditions: in DMAc, 318.15 K
property_measured: solubility (mole fraction)
Give a plain numeric answer without units written out.

Specify measured solubility (mole fraction) for COC(=O)Nc1nc2ccc(S(=O)c3ccccc3)cc2[nH]1 (stereo unspecified) .
0.0147

###

Conditions: in 2-ethoxyethanol, 323.15 K
property_measured: solubility (mole fraction)
Give a plain numeric answer without units written out.

Specify measured solubility (mole fraction) for COC(=O)Nc1nc2ccc(S(=O)c3ccccc3)cc2[nH]1 (stereo unspecified) .
0.00144

###

Conditions: in methanol, 288.15 K
property_measured: solubility (mole fraction)
Give a plain numeric answer without units written out.

Specify measured solubility (mole fraction) for COC(=O)Nc1nc2ccc(S(=O)c3ccccc3)cc2[nH]1 (stereo unspecified) .
0.00012

###

Settings: in 2-propoxyethanol, 278.15 K
property_measured: solubility (mole fraction)
Give a plain numeric answer without units written out.

Specify measured solubility (mole fraction) for COC(=O)Nc1nc2ccc(S(=O)c3ccccc3)cc2[nH]1 (stereo unspecified) .
0.000338

###

Conditions: in methanol, 323.15 K
property_measured: solubility (mole fraction)
Give a plain numeric answer without units written out.

Specify measured solubility (mole fraction) for COC(=O)Nc1nc2ccc(S(=O)c3ccccc3)cc2[nH]1 (stereo unspecified) .
0.000389

###

Conditions: in 2-ethoxyethanol, 313.15 K
property_measured: solubility (mole fraction)
Give a plain numeric answer without units written out.

Specify measured solubility (mole fraction) for COC(=O)Nc1nc2ccc(S(=O)c3ccccc3)cc2[nH]1 (stereo unspecified) .
0.00118

###

Details: in 2-propoxyethanol, 283.15 K
property_measured: solubility (mole fraction)
Give a plain numeric answer without units written out.

Specify measured solubility (mole fraction) for COC(=O)Nc1nc2ccc(S(=O)c3ccccc3)cc2[nH]1 (stereo unspecified) .
0.000402

###

Details: in DMF, 323.15 K
property_measured: solubility (mole fraction)
Give a plain numeric answer without units written out.

Specify measured solubility (mole fraction) for COC(=O)Nc1nc2ccc(S(=O)c3ccccc3)cc2[nH]1 (stereo unspecified) .
0.00796

###

Settings: in methanol, 283.15 K
property_measured: solubility (mole fraction)
Give a plain numeric answer without units written out.

Specify measured solubility (mole fraction) for COC(=O)Nc1nc2ccc(S(=O)c3ccccc3)cc2[nH]1 (stereo unspecified) .
9.72e-05

###

Conditions: in 2-propoxyethanol, 303.15 K
property_measured: solubility (mole fraction)
Give a plain numeric answer without units written out.

Specify measured solubility (mole fraction) for COC(=O)Nc1nc2ccc(S(=O)c3ccccc3)cc2[nH]1 (stereo unspecified) .
0.000727

###

Details: in DMAc, 303.15 K
property_measured: solubility (mole fraction)
Give a plain numeric answer without units written out.

Specify measured solubility (mole fraction) for COC(=O)Nc1nc2ccc(S(=O)c3ccccc3)cc2[nH]1 (stereo unspecified) .
0.00976

###

Details: in DMSO, 308.15 K
property_measured: solubility (mole fraction)
Give a plain numeric answer without units written out.

Specify measured solubility (mole fraction) for COC(=O)Nc1nc2ccc(S(=O)c3ccccc3)cc2[nH]1 (stereo unspecified) .
0.0138

###

Details: in 2-propoxyethanol, 323.15 K
property_measured: solubility (mole fraction)

Specify measured solubility (mole fraction) for COC(=O)Nc1nc2ccc(S(=O)c3ccccc3)cc2[nH]1 (stereo unspecified) .
0.00117

###

Settings: in diglyme, 298.15 K
property_measured: solubility (mole fraction)
Give a plain numeric answer without units written out.

Specify measured solubility (mole fraction) for COC(=O)Nc1nc2ccc(S(=O)c3ccccc3)cc2[nH]1 (stereo unspecified) .
0.00028

###

Settings: in DMSO, 318.15 K
property_measured: solubility (mole fraction)
Give a plain numeric answer without units written out.

Specify measured solubility (mole fraction) for COC(=O)Nc1nc2ccc(S(=O)c3ccccc3)cc2[nH]1 (stereo unspecified) .
0.0175

###

Details: in methanol, 313.15 K
property_measured: solubility (mole fraction)
Give a plain numeric answer without units written out.

Specify measured solubility (mole fraction) for COC(=O)Nc1nc2ccc(S(=O)c3ccccc3)cc2[nH]1 (stereo unspecified) .
0.000287

###

Conditions: in 2-propoxyethanol, 293.15 K
property_measured: solubility (mole fraction)
Give a plain numeric answer without units written out.

Specify measured solubility (mole fraction) for COC(=O)Nc1nc2ccc(S(=O)c3ccccc3)cc2[nH]1 (stereo unspecified) .
0.000554

###

Settings: in DMSO, 298.15 K
property_measured: solubility (mole fraction)
Give a plain numeric answer without units written out.

Specify measured solubility (mole fraction) for COC(=O)Nc1nc2ccc(S(=O)c3ccccc3)cc2[nH]1 (stereo unspecified) .
0.0109

###

Details: in 2-methoxyethanol, 293.15 K
property_measured: solubility (mole fraction)
Give a plain numeric answer without units written out.

Specify measured solubility (mole fraction) for COC(=O)Nc1nc2ccc(S(=O)c3ccccc3)cc2[nH]1 (stereo unspecified) .
0.00104

###

Conditions: in DMAc, 313.15 K
property_measured: solubility (mole fraction)
Give a plain numeric answer without units written out.

Specify measured solubility (mole fraction) for COC(=O)Nc1nc2ccc(S(=O)c3ccccc3)cc2[nH]1 (stereo unspecified) .
0.0125

###

Settings: in diglyme, 288.15 K
property_measured: solubility (mole fraction)

Specify measured solubility (mole fraction) for COC(=O)Nc1nc2ccc(S(=O)c3ccccc3)cc2[nH]1 (stereo unspecified) .
0.000203

###

Details: in diglyme, 278.15 K
property_measured: solubility (mole fraction)
Give a plain numeric answer without units written out.

Specify measured solubility (mole fraction) for COC(=O)Nc1nc2ccc(S(=O)c3ccccc3)cc2[nH]1 (stereo unspecified) .
0.00015

###

Settings: in 2-methoxyethanol, 288.15 K
property_measured: solubility (mole fraction)
Give a plain numeric answer without units written out.

Specify measured solubility (mole fraction) for COC(=O)Nc1nc2ccc(S(=O)c3ccccc3)cc2[nH]1 (stereo unspecified) .
0.000887

###

Conditions: in DMAc, 298.15 K
property_measured: solubility (mole fraction)
Give a plain numeric answer without units written out.

Specify measured solubility (mole fraction) for COC(=O)Nc1nc2ccc(S(=O)c3ccccc3)cc2[nH]1 (stereo unspecified) .
0.00821

###

Settings: in DMF, 283.15 K
property_measured: solubility (mole fraction)
Give a plain numeric answer without units written out.

Specify measured solubility (mole fraction) for COC(=O)Nc1nc2ccc(S(=O)c3ccccc3)cc2[nH]1 (stereo unspecified) .
0.00329

###

Conditions: in diglyme, 323.15 K
property_measured: solubility (mole fraction)
Give a plain numeric answer without units written out.

Specify measured solubility (mole fraction) for COC(=O)Nc1nc2ccc(S(=O)c3ccccc3)cc2[nH]1 (stereo unspecified) .
0.000502

###

Details: in 2-propoxyethanol, 298.15 K
property_measured: solubility (mole fraction)
Give a plain numeric answer without units written out.

Specify measured solubility (mole fraction) for COC(=O)Nc1nc2ccc(S(=O)c3ccccc3)cc2[nH]1 (stereo unspecified) .
0.000629

###

Settings: in 2-ethoxyethanol, 293.15 K
property_measured: solubility (mole fraction)
Give a plain numeric answer without units written out.

Specify measured solubility (mole fraction) for COC(=O)Nc1nc2ccc(S(=O)c3ccccc3)cc2[nH]1 (stereo unspecified) .
0.000682

###

Settings: in methanol, 298.15 K
property_measured: solubility (mole fraction)

Specify measured solubility (mole fraction) for COC(=O)Nc1nc2ccc(S(=O)c3ccccc3)cc2[nH]1 (stereo unspecified) .
0.00017

###

Details: in 2-ethoxyethanol, 298.15 K
property_measured: solubility (mole fraction)
Give a plain numeric answer without units written out.

Specify measured solubility (mole fraction) for COC(=O)Nc1nc2ccc(S(=O)c3ccccc3)cc2[nH]1 (stereo unspecified) .
0.00079

###

Conditions: in DMF, 318.15 K
property_measured: solubility (mole fraction)
Give a plain numeric answer without units written out.

Specify measured solubility (mole fraction) for COC(=O)Nc1nc2ccc(S(=O)c3ccccc3)cc2[nH]1 (stereo unspecified) .
0.00718

###

Conditions: in diglyme, 293.15 K
property_measured: solubility (mole fraction)

Specify measured solubility (mole fraction) for COC(=O)Nc1nc2ccc(S(=O)c3ccccc3)cc2[nH]1 (stereo unspecified) .
0.000241

###

Conditions: in diglyme, 308.15 K
property_measured: solubility (mole fraction)
Give a plain numeric answer without units written out.

Specify measured solubility (mole fraction) for COC(=O)Nc1nc2ccc(S(=O)c3ccccc3)cc2[nH]1 (stereo unspecified) .
0.000362

###

Settings: in DMF, 313.15 K
property_measured: solubility (mole fraction)
Give a plain numeric answer without units written out.

Specify measured solubility (mole fraction) for COC(=O)Nc1nc2ccc(S(=O)c3ccccc3)cc2[nH]1 (stereo unspecified) .
0.00632

###

Conditions: in methanol, 318.15 K
property_measured: solubility (mole fraction)
Give a plain numeric answer without units written out.

Specify measured solubility (mole fraction) for COC(=O)Nc1nc2ccc(S(=O)c3ccccc3)cc2[nH]1 (stereo unspecified) .
0.000332

###

Details: in 2-ethoxyethanol, 303.15 K
property_measured: solubility (mole fraction)
Give a plain numeric answer without units written out.

Specify measured solubility (mole fraction) for COC(=O)Nc1nc2ccc(S(=O)c3ccccc3)cc2[nH]1 (stereo unspecified) .
0.000908

###

Conditions: in DMAc, 288.15 K
property_measured: solubility (mole fraction)
Give a plain numeric answer without units written out.

Specify measured solubility (mole fraction) for COC(=O)Nc1nc2ccc(S(=O)c3ccccc3)cc2[nH]1 (stereo unspecified) .
0.00576
